Numbers sourced from patent US20170342144A1.

Study System: T1, human TGFβ3 (human, UniProt P10600 301-412)
T1 sequence: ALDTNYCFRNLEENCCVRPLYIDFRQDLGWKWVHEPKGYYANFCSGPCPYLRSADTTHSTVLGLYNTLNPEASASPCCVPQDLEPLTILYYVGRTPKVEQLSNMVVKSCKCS
Assay Info: Biacore, 3.33-90 nM, 1:1 global fit, vs wt GC1008
Measure Name: KD mutant/KD wt
Reply with the value as a number alone.

Look up and report measured KD mutant/KD wt for this entry: E74L (antibody, V domains shown, GC1008 IgG4 variant) VH: QVQLVQSGAEVKKPGSSVKVSCKASGYTFSSNVISWVRQAPGQGLEWMGGVIPIVDIANYAQRFKGRVTITADLSTSTTYMELSSLRSEDTAVYYCASTLGLVLDAMDYWGQGTLVTVSS VL: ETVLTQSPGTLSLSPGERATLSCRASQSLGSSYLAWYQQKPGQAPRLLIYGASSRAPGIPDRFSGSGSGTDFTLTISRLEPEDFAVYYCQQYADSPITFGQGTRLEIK 0.3

Look up and report measured KD mutant/KD wt for this entry: S30E (antibody, V domains shown, GC1008 IgG4 variant) VH: QVQLVQSGAEVKKPGSSVKVSCKASGYTFESNVISWVRQAPGQGLEWMGGVIPIVDIANYAQRFKGRVTITADESTSTTYMELSSLRSEDTAVYYCASTLGLVLDAMDYWGQGTLVTVSS VL: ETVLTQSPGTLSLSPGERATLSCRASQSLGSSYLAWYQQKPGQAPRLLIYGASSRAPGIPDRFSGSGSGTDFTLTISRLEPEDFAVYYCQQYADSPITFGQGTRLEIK 0.8
